Readings of Percentage inhibition of kinase enzyme activity for the listed compounds
Target: MST3 (Homo sapiens, UniProt Q9Y6E0)
Construct: purchased Carna Biosciences
Sequence (Q9Y6E0 whole entry): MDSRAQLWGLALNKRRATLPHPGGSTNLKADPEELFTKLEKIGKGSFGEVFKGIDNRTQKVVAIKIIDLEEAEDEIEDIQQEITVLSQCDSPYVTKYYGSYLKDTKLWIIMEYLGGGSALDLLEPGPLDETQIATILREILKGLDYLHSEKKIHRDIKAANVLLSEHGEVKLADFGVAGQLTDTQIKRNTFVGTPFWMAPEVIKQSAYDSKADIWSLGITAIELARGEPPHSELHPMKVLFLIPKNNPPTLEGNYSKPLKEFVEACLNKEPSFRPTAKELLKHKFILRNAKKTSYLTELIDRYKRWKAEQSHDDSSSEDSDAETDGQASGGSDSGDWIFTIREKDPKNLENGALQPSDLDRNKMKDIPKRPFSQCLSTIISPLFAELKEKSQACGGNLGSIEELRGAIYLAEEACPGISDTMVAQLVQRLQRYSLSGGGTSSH
Test: Kinase panel profiling at 1 µmol/L (mobility shift assay, Carna)
Format: biochemical
Conditions: 1 µmol/L of BTK inhibitor
quantity: Percentage inhibition of kinase enzyme activity (%)

| substance-smiles | target-under-test | reading-unit | recorded-result |
| --- | --- | --- | --- |
| O=C(c1ccc(Oc2ccccc2)cc1Cl)c1c[nH]c2ncnc(N[C@@H]3CC[C@@H](CO)OC3)c12 | MST3 (Homo sapiens, UniProt Q9Y6E0) | % | 60.10 |
| COc1ccc(F)cc1C(=O)NCc1ccc(-c2nn([C@@H](C)C(F)(F)F)c(N)c2C(N)=O)cc1 | MST3 (Homo sapiens, UniProt Q9Y6E0) | % | 0.67 |
| CC#CC(=O)N1CCC[C@H]1c1nc(-c2ccc(C(=O)Nc3ccccn3)cc2)c2c(N)nccn12 | MST3 (Homo sapiens, UniProt Q9Y6E0) | % | -2.52 |
| C=CC(=O)N1CCC[C@@H](n2nc(-c3ccc(Oc4ccccc4)cc3)c3c(N)ncnc32)C1 | MST3 (Homo sapiens, UniProt Q9Y6E0) | % | 7.79 |

Where do these numbers come from? They come from paper PMC12586182.
